- TARGET ENTITY: HIV-1 HXB2 envelope protein (ENV), gp41 transmembrane subunit (HIV-1 HXB2, UniProt P04578 33-856)
- METHOD DESCRIPTION: cell-based or functional assay
Field: label. Allowed values: met (IC50 (nM), antiviral activity in a fully infectious HIV-1 system < 300 nM) or not met (IC50 (nM), antiviral activity in a fully infectious HIV-1 system >= 300 nM).

{"BINDER": "LLQLTVWGIKQLQA (sphinganine on the N-terminus) [Sphing-N14]", "CLASSIFICATION": "not met"}
{"BINDER": "YTSLIHSLIEESQNQQEKNK [DP19K]", "CLASSIFICATION": "not met"}
{"BINDER": "LQARILAVERYLKDQQL (sphinganine on the N-terminus) [Sphinganine-ShN17]", "CLASSIFICATION": "not met"}

Ask: Please check: IC50 (nM), antiviral activity in a fully infectious HIV-1 system for LLQLTVWGIKQLQARIL (tocopherol (alpha-tocopherol succinate) on the N-terminus) [Tocopherol-N17] , strictly under 300 nM or not?
Result: not met

Ask: Now the binder ELQLTQWKIKQLLARILK (sphinganine on the N-terminus) [Sphing-N17mut (e, g) K]
Result: met

Ask: What about YTSLIHSLIEESQNQQEKNK (sphinganine on the side chain of the C-terminal Lys) [DP19K-sphinganine] ?
Result: not met

Ask: Also need LLQLTVWGIKQLQARIL (palmitic acid (C16) on the N-terminus) [Palmitic acid-N17] , thanks.
Result: not met

Ask: Next record, please: LLQLTVWGIKQLQARIL (cholesterol on the N-terminus) [Cholesterol-N17]
Result: not met

Ask: Cool, now LLQLTVWGIKQLQARIL [N17]
Result: not met

Ask: Now consider LLQLTVWGIKQLQARILK (sphinganine on the N-terminus) [Sphinganine-N17K] and answer again.
Result: met

Ask: Likewise for ELQLTQWKIKQLLARILK (sphinganine on the side chain of the C-terminal Lys) [N17mut (e, g) K-sphing] ?
Result: met

Ask: Now consider LLQLTVWGIKQLQARIL (sphingosine on the N-terminus) [Sphingosine-N17] and answer again.
Result: met

Ask: Quick one: LLQLTVWGIKQLQA [N14]
Result: not met

Ask: Please do the same for ELQLTQWKIKQLLARILK [N17mut (e, g) K] as well.
Result: not met

Ask: Same question, LLQLTVWGIKQLQARIL (sphinganine (dihydrosphingosine) on the N-terminus) [Sphinganine-N17] this time
Result: met

Ask: Then this binder: LLQLTVWGIKQLQARILK [N17K]
Result: not met
